Answer each item with its documented AC50.
- TARGET DESC: Cytochrome P450 3A4 (Homo sapiens, UniProt P08684);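 note: CYP3A4 tested as one member of a cytochrome P450 panel screen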
- Sequence (P08684 whole entry): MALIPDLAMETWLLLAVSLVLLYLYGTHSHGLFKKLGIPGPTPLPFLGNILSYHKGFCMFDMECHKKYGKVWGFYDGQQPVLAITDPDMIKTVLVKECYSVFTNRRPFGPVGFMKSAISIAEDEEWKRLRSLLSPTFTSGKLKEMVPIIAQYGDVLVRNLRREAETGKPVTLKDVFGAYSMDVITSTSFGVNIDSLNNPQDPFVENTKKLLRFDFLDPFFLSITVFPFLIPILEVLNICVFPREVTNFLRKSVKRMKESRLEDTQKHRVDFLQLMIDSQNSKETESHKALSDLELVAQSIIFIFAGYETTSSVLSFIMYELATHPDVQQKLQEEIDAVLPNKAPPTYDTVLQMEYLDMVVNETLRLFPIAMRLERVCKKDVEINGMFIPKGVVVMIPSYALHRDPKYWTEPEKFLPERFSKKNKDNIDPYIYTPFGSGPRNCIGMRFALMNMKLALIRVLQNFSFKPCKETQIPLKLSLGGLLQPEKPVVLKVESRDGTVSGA

QUERY: For the molecule `Cc1ccc(CS(=O)(=O)CCC(=O)NCCN2CCCC2)cc1` , what AC50 is on record?
RESULT: 25.1 µM (inconclusive)

QUERY: Also CC(C)c1ccc(N2C(=O)CC(Sc3nc4ccccc4o3)C2=O)cc1 (stereo not drawn) ?
RESULT: 39.8 µM (inconclusive)

QUERY: Also `N#CCCn1c(=O)c(-c2ccc(F)cc2)nc2cnc(N3CCNCC3)nc21` ?
RESULT: 25.1 µM (inconclusive)

QUERY: Also `O=C1Oc2ccccc2C(=O)/C1=C\N1C(=O)N/C(=C\c2ccccc2O)C1=O` ?
RESULT: 3.98 µM (inconclusive)

QUERY: Also `COc1ccc(-c2csc(NC(=O)Cn3nc(C)cc3C)n2)cc1` ?
RESULT: 15.8 µM (inconclusive)

QUERY: Also `CCOc1cccc2cc(C(N)=O)/c(=N/Cc3ccccc3)oc12` ?
RESULT: 14.1 µM (inconclusive)

QUERY: Also `CCNc1ncc2nc(-c3ccc(OC)cc3)c(=O)n(-c3ccc(OC)cc3)c2n1` ?
RESULT: 12.6 µM (inconclusive)

QUERY: Also CCCCN1CCCC[C@H]1C(=O)Nc1c(C)cccc1C [LEVOBUPIVACAINE] ?
RESULT: 10 µM (inconclusive)

QUERY: Also O=c1[nH]c2cc([N+](=O)[O-])c([N+](=O)[O-])cc2[nH]c1=O [DNQX] ?
RESULT: 25.1 µM (inconclusive)

QUERY: Also `CS(=O)(=O)N1CCC[C@@]2(CCN(C(=O)Nc3cccc(F)c3)C2)C1` ?
RESULT: 12.6 µM (inconclusive)

QUERY: Also `Cn1c(S)nnc1CNS(=O)(=O)c1ccc(Cl)cc1` ?
RESULT: 15.8 µM (inconclusive)

QUERY: Also `COCCNC(=O)CSc1nc2cc(OC)c(OC)cc2c(=O)n1Cc1ccco1` ?
RESULT: 3.55 µM (inconclusive)

QUERY: Also `O=c1c(-c2cccc(F)c2)nc2cncnc2n1C1CC1` ?
RESULT: 12.6 µM (inconclusive)

QUERY: Also `O=c1c(-c2cccs2)nc2cnc(N3CCOCC3)nc2n1Cc1ccc(F)cc1` ?
RESULT: 2.51 µM (inconclusive)

QUERY: Also `N#Cc1ccc(-c2ccc(F)cc2)nc1Sc1ccccc1` ?
RESULT: 12.6 µM (inconclusive)

QUERY: Also Cc1noc(NS(=O)(=O)c2cccc3c(N(C)C)cccc23)c1C [BMS-182874] ?
RESULT: 20 µM (inconclusive)

QUERY: Also CC(NC(=O)c1ccc(Cl)cc1)c1nnc(SCc2ccc([N+](=O)[O-])cc2)n1C (stereo not drawn) ?
RESULT: 8.91 µM (inconclusive)

QUERY: Also `COc1ccc(O[C@H]2C=C[C@@H](c3ccccc3)O[C@H]2CO/N=C(/C)CCC(=O)OC[C@@H]2O[C@H](C#Cc3ccccc3)C=C[C@@H]2Oc2ccc(C)cc2)cc1` ?
RESULT: 3.16 µM (inconclusive)

* * *

- TARGET DESC: Phospholipase A2 (Homo sapiens, UniProt P04054);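 note: confirmatory dose-response counterscreen on phospholipase A2, testing hits that came from an ultra-high-throughput screen for ATG4B inhibitors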
- Sequence (P04054 whole entry): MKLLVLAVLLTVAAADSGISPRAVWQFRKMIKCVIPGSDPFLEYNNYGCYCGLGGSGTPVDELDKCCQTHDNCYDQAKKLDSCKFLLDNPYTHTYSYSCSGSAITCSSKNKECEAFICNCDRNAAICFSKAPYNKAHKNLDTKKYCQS
- Type: functional
The source made the active and inactive calls.
Answer each item with its documented IC50.

QUERY: For the molecule `CC(C)(C)C(=O)CSc1ncnc2sc3c(c12)CCC3` , what IC50 is on record?
RESULT: 2.59 µM (active)

QUERY: Also CCCCCCCOC(=O)C[N+](C)(C)CCOC1CC2CCC1(C)C2(C)C (centres undefined) ?
RESULT: 10.3 µM (active)

QUERY: Also `Cc1ccc(CSc2nc(-c3ccccc3)c(C#N)c(=O)[nH]2)cc1` ?
RESULT: 21.2 µM (inactive)

QUERY: Also `Cc1onc(-c2ccccc2)c1CNC(=O)Nc1cccc(Cl)c1` ?
RESULT: 8.35 µM (active)

* * *

Answer each item with its documented AC50.
- MEASUREMENT DESCRIPTION: control 3'UTR Renilla luciferase suppression, dose response, counter-screen for Shn3 inhibitor project, cell-based, Clone20-Shn3RL, cherry-picked (AID 624133)
- Type: functional
Calls of active or inactive are those of the source.

QUERY: For the molecule `CN1C(=O)c2cccc(NCCCCCCN3C(=O)c4ccccc4C3=O)c2C1=O` , what AC50 is on record?
RESULT: 17.2 µM (active)

QUERY: Also `CCN(CC)S(=O)(=O)c1ccc(S(=O)(=O)Nc2c(C)nn(C)c2C)cc1` ?
RESULT: 27.4 µM (active)

QUERY: Also `O=C(Nc1ccccc1Cc1ccccc1)c1ccccc1NS(=O)(=O)c1ccc(Cl)s1` ?
RESULT: 18.2 µM (active)

QUERY: Also Cc1ccc(Cl)cc1N1CCN(C(=O)C2CCC(=O)N(C3CCCCCC3)C2)CC1 (centres undefined) ?
RESULT: 3.41 µM (active)

* * *

Answer each item with its documented EC50.
- TARGET DESC: Voltage-dependent T-type calcium channel subunit alpha-1H (Homo sapiens);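 note: channel activity triggered by adding a high calcium stimulation buffer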
- Sequence (O95180 whole entry): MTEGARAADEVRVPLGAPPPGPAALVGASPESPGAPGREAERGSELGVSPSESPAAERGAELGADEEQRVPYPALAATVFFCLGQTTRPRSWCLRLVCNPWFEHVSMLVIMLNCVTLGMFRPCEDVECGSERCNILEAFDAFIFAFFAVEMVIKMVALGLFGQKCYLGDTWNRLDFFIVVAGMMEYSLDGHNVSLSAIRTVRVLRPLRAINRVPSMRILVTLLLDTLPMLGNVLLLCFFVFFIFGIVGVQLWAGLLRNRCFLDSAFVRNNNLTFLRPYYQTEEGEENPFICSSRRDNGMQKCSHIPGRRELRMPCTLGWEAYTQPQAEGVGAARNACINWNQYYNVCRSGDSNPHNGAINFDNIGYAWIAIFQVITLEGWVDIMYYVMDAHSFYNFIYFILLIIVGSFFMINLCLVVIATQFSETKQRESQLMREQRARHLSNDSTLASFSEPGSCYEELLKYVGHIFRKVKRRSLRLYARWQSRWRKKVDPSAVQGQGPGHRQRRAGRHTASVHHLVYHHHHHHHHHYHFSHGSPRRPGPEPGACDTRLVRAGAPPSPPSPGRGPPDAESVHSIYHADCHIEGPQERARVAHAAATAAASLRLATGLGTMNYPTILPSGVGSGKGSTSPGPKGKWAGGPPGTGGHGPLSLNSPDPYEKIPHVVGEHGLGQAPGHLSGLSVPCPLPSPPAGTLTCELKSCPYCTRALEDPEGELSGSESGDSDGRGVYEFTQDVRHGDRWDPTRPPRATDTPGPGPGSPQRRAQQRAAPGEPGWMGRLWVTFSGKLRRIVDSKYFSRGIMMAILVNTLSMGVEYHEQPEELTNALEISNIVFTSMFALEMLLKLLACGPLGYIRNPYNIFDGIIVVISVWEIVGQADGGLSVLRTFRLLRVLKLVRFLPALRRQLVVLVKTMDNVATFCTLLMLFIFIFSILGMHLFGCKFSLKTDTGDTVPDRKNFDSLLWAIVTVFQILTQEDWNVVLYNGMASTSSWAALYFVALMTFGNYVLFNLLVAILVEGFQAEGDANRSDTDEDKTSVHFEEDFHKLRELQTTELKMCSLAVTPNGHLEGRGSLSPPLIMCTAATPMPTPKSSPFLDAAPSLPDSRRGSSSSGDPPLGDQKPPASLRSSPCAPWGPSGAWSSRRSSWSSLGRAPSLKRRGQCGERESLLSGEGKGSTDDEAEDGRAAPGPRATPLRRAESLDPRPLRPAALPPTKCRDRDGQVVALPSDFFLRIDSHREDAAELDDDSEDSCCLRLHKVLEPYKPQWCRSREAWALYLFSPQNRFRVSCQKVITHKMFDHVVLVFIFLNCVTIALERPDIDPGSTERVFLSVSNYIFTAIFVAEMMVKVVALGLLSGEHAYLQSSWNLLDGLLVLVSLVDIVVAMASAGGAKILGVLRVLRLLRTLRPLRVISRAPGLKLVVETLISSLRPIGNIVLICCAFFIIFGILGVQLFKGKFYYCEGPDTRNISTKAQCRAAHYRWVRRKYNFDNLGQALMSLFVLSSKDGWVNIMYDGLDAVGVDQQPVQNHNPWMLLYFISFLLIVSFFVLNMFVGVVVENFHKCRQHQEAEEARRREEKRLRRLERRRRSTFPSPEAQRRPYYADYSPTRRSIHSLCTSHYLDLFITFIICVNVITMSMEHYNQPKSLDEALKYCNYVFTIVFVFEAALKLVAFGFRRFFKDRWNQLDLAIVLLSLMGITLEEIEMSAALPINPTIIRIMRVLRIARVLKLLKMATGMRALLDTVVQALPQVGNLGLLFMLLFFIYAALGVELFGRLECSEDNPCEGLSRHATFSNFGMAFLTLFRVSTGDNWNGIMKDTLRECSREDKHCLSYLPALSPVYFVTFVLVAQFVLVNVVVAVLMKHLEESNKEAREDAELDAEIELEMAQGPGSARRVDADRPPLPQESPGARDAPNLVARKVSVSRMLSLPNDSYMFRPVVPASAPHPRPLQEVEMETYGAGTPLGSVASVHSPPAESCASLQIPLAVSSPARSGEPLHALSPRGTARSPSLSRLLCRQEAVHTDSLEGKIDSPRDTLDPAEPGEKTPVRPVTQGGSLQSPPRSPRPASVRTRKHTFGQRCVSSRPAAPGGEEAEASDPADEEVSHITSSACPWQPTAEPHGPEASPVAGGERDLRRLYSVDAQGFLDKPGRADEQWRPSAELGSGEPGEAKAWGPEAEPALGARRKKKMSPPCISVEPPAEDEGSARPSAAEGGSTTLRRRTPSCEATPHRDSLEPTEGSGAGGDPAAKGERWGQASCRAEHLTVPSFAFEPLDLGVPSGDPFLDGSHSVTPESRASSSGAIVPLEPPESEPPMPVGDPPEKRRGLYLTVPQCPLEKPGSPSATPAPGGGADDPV
- Format: functional
Activity calls are given as the source filed them.

QUERY: Request body: readout EC50, system Voltage-dependent T-type calcium channel subunit alpha-1H (Homo sapiens), query `O=C(Nc1ccccc1-c1ccccc1)c1ccc(Br)o1` . Return the value.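 Note: channel activity triggered by adding a high calcium stimulation buffer.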
RESULT: 7.47 µM (active)

QUERY: Also `O=C(CSc1nnc(Cc2cccs2)n1Cc1ccco1)Nc1ccc(Br)cc1` ?
RESULT: 3.12 µM (active)

QUERY: Also Cc1cc(C)n(CCOC(=O)C2C(C=C(Cl)Cl)C2(C)C)n1 (stereo not drawn) ?
RESULT: 4.86 µM (active)

QUERY: Also COc1ccc(S(=O)(=O)N2CCOC2CNC(=O)C(=O)NCCc2c[nH]c3ccccc23)cc1C (stereo not drawn) ?
RESULT: 3.31 µM (active)

QUERY: Also `CCN(CC)S(=O)(=O)c1ccc(Cc2ncc(C(F)(F)F)cc2Cl)s1` ?
RESULT: 9.84 µM (active)

QUERY: Also O=C1c2ccccc2C(Nc2cccc(C(F)(F)F)c2)N1Cc1ccco1 (stereo not drawn) ?
RESULT: 3.9 µM (active)

QUERY: Also CC(C)NC(C(=O)Nc1cc(Cl)cc(Cl)c1)c1ccccc1 (stereo not drawn) ?
RESULT: 3.62 µM (active)

QUERY: Also `O=C(CN1CCN(C(=O)c2ccco2)CC1)Nc1ccc(Cl)c(C(F)(F)F)c1` ?
RESULT: 3.47 µM (active)

* * *

- TARGET DESC: Corticotropin-releasing factor receptor 2/Corticotropin-releasing factor-binding protein (Homo sapiens, UniProt P24387+Q13324)
- Sequence (Q13324 whole entry): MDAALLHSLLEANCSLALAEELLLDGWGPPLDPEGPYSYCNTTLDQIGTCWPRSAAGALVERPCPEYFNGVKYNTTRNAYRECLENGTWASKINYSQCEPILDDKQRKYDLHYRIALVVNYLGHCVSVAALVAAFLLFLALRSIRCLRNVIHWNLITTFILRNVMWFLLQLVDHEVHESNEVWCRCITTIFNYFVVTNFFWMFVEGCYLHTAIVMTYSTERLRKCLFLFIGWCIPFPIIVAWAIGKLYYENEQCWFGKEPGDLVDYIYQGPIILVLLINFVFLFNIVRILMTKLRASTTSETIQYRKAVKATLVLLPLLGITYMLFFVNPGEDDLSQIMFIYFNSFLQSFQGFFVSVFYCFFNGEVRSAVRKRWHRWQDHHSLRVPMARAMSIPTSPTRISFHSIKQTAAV
- Sequence (P24387 whole entry): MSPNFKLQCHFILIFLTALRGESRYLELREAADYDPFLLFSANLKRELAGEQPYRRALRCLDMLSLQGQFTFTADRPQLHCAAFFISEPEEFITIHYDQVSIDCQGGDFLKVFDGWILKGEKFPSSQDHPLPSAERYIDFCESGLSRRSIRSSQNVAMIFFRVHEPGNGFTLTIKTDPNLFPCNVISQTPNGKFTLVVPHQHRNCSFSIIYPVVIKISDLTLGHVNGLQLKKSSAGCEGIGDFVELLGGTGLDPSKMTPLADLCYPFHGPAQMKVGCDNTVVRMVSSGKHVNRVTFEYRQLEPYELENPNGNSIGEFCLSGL
- MEASUREMENT DESCRIPTION: activators of CRF receptor 2 with binding protein – uHTS hits, confirmation (AID 602473)
- Assay type: functional
- PARTICULARS: read-out: EC50_Mean
The source made the active and inactive calls.
Write down one outcome, taken from active, inactive

QUERY: Can you look up the reported call for O=C(C1CCN(C2CCN(CC3CC=CCC3)CC2)CC1)N1CCOCC1 (stereo unspecified) for me?
RESULT: inactive

QUERY: Also `Cc1cccc(C)c1N1CCN(S(=O)(=O)N2CCCCC2)CC1` ?
RESULT: active

QUERY: Also `Cc1nn(C)c(Oc2ccc(Cl)cc2)c1C(=O)O` ?
RESULT: inactive

QUERY: Also `CCN1CCSc2ccc(C(=O)NCc3ccccc3F)cc21` ?
RESULT: inactive

QUERY: Also `Cc1ccc(NC(S)=NCc2ccccn2)cc1` ?
RESULT: inactive

QUERY: Also COc1ccc(C2=CC(c3cccc(OC)c3)n3nnnc3N2)cc1 (stereo unspecified) ?
RESULT: inactive

QUERY: Also CCCS(=O)(=O)N1CCCC(C(=O)NCCCN(CC)c2cccc(C)c2)C1 (stereo unspecified) ?
RESULT: inactive

QUERY: Also O=C(O)C1C2C=CC(C2)C1C(=O)NCCc1cccc(Cl)c1 (stereo unspecified) ?
RESULT: inactive

QUERY: Also `O=C(NCCOc1ccccc1F)c1ccccc1SCc1ccc(F)cc1` ?
RESULT: inactive

QUERY: Also `C=CCN(c1ccccc1)S(=O)(=O)c1cccc(C(=O)O)c1` ?
RESULT: inactive

QUERY: Also `Cc1c(NC2=N/C(=N\C(=O)c3cccs3)c3ccccc32)c(=O)n(-c2ccccc2)n1C` ?
RESULT: active
